# Protocol description: Cytotoxicity against human HepG2 cells assessed as reduction in cell viability after 40 hrs by Celltiter-Glo assay
# Details: HepG2 cells
IC50 at 40 h listing for selected molecules.

Cn1c(NCCc2ccc(-c3ccc(Cl)cn3)cc2)nc2cc(Cl)ccc2c1=O | > 30 µM
COc1ccc(CCNc2nc3cc(OC)ccc3c(=O)n2C)cc1 | > 30 µM
COCCOc1ccc(CCNc2nc3cc(Cl)ccc3c(=O)n2C)cc1 | > 30 µM
Cn1c(NCCc2ccc(-c3ccc(Cl)cc3)nn2)nc2cc(Cl)ccc2c1=O | > 30 µM
COc1ccc(CCNc2nc3cc(F)ccc3c(=O)n2C)cc1 | > 30 µM

Look at this molecule and give its reported IC50 at 40 h. COc1ccc(CCNc2nc3cc(Cl)ccc3c(=O)n2C)nc1
27 µM

Quick one: COc1ccc(CCN(C)c2nc3cc(Cl)ccc3c(=O)n2C)cc1
> 30 µM

----------
# Protocol description: Cytotoxicity against human HepG2 cells assessed as reduction in cell viability after 40 hrs by Celltiter-Glo assay
# Details: HepG2 cells
Parameter: IC50 at 40 h. Scope: all listed entries.
// units = µM; emit number, no label

Cn1c(NCCc2ccc(Oc3ccc(Cl)cc3)cc2)nc2cc(Cl)ccc2c1=O | 10.9

--- query ---
What value of measured IC50 at 40 h is listed for COc1ccc(CCNc2nc3cc(C#N)ccc3c(=O)n2C)cc1 ?
12.7

----------
# Protocol description: Cytotoxicity against human HepG2 cells assessed as reduction in cell viability after 40 hrs by Celltiter-Glo assay
# Details: HepG2 cells
Observable: IC50 at 40 h

Below, each entry is followed by its recorded IC50 at 40 h result.
Cn1c(NCCc2ccc(-c3ncc(F)cn3)cc2)nc2cc(Cl)ccc2c1=O | > 30 µM
COc1ccc(-c2ccc(CCNc3nc4cc(Cl)ccc4c(=O)n3C)cc2)cc1 | > 30 µM

Continue with the next compound.
Entry COc1ccc(CCNc2nc3ccccc3c(=O)n2C)cc1 : reported IC50 at 40 h = ?
> 30 µM
